method-summary: Inhibition of human soluble epoxide […] using fluorescent CMNPC as substrate after 10 mins by fluorometric assay
Overview of reported pIC50 across a group of compounds:
Lab note: report pIC50 as minus log10 of the concentration in molar units, number only.

compound	observed-value
O=C(NCCCc1ccccc1)C1CCCCC1	6.63

Request: Can you look up the measured pIC50 of CCOC(=O)c1ccc(NC(=O)C23CC4CC(CC(C4)C2)C3)cc1 for me?
Result: 7.00

Request: Now the same for COC(=O)c1ccc(CNC(=O)C2CCc3ccccc3C2)cc1 (configuration not stated)
Result: 8.68

Request: Now the same for COC(=O)c1ccc(CNC(=O)c2ccc3cc(O)ccc3c2)cc1
Result: 8.74

Request: Now the same for O=C(NCCCc1ccccc1)C1CCC(CO)CC1 (configuration not stated)
Result: 6.61

Request: Now the same for O=C(NCCCc1ccccc1)C1CCc2ccccc2C1 (configuration not stated)
Result: 7.82

* * *

method-summary: Aqueous solubility of the compound in […] phosphate buffer at pH 7.4
Format: physicochemical
readout-type: solubility
Hey, just the number and the unit after it is fine.

Use the examples below as a reference point.
compound	readout-type	observed-value
COC(=O)c1ccc(CNC(=O)C2CCc3ccccc3C2)cc1 (stereo unspecified)	solubility	125 µM
COC(=O)c1ccc(CNC(=O)c2ccc3ccccc3c2)cc1	solubility	31 µM
COC(=O)c1ccc(CNC(=O)c2ccc3cc(O)ccc3c2)cc1	solubility	31 µM
COC(=O)c1ccc(CNC(=O)C23CC4CC(CC(C4)C2)C3)cc1	solubility	125 µM
COC(=O)c1ccc(CNC(=O)c2ccc3cc(OC)ccc3c2)cc1	solubility	15 µM

Below: the item to evaluate.
Request: Can you look up the measured solubility of O=C(O)CCCCCCCCCCCNC(=O)NC12CC3CC(CC(C3)C1)C2 for me?
Result: 63 µM

* * *

method-summary: Inhibition of human soluble epoxide […] using fluorescent CMNPC as substrate after 10 mins by fluorometric assay
readout-type: pIC50
Lab note: report pIC50 as minus log10 of the concentration in molar units, number only.

Use the examples below as a reference point.
compound	pIC50
O=C(NCCCc1ccccc1)C1CC=CCC1 (stereo unspecified)	6.65
O=C(NCCCc1ccccc1)C1CCC(C(F)(F)F)CC1 (stereo unspecified)	7.19
CC(C)(C)C1CCC(C(=O)NCCCc2ccccc2)CC1 (stereo unspecified)	7.24
COC(=O)c1ccc2cc(NC(=O)C34CC5CC(CC(C5)C3)C4)ccc2c1	7.19

Request: Can you look up the measured pIC50 of COC(=O)c1ccc(CNC(=O)c2ccc3ccccc3c2)cc1 for me?
Result: 8.18

Request: Now the same for O=C(NCCCc1ccccc1)C12CC3CC(CC(C3)C1)C2
Result: 7.39

Request: Now the same for COC(=O)c1ccc(CNC(=O)c2ccc3cc(OC)ccc3c2)cc1
Result: 8.62

Request: Now the same for CN(CCCc1ccccc1)C(=O)C12CC3CC(CC(C3)C1)C2
Result: 6.14

Request: Now the same for O=C(NCCc1ccccc1)C12CC3CC(CC(C3)C1)C2
Result: 6.64

Request: Now the same for COC(=O)C1CCC(C(=O)NCCCc2ccccc2)CC1 (stereo unspecified)
Result: 7.11

Request: Now the same for COC(=O)c1ccc(CCNC(=O)C23CC4CC(CC(C4)C2)C3)cc1
Result: 6.64

The measured values listed here are drawn from ChEMBL document CHEMBL1687925.
